So I've got a bunch of molecules here, and I need their inhibition in vivo at 100 mg/kg values.
Tested on: Rattus norvegicus
measurementDescription: Antiinflammatory activity in Wistar rat assessed as inhibition of carrageenan-induced paw oedema at 100 mg/kg, po administered 1 hr prior to carrageenan challenge
Type: functional
Answers are plain numbers, in %.

// worked examples, inhibition in vivo at 100 mg/kg included
- givenSmiles: "CCc1nnc2c(C(=O)N(CC)CC)c(N3CCN(C)CC3)c3cccnc3n12"
  target: "Rattus norvegicus"
  measureName: "inhibition in vivo at 100 mg/kg"
  measuredValue: 39
- givenSmiles: "CNC(=O)c1c(NC(C)C)c2cccnc2n2c(C(C)C)nnc12"
  target: "Rattus norvegicus"
  measureName: "inhibition in vivo at 100 mg/kg"
  measuredValue: 50

Problem: Which value of inhibition in vivo at 100 mg/kg has been reported for `CCN(CC)C(=O)c1c(N2CCN(C)CC2)c2cccnc2n2c(CN3CCOCC3)nnc12` in the records?
Result: 8
